Origin of measurements: ChEMBL document CHEMBL1135290

assay: Inhibitory activity against Translocase I
REPORTED ENDPOINT: IC50 (nM)

Give the reported value of IC50 for this record: "NC[C@H]1O[C@@H](O[C@@H](CN2CCN(CC(=O)N3CCCC3)CC2)[C@@H]2C[C@@H](O)[C@H](n3ccc(=O)[nH]c3=O)O2)[C@H](O)[C@@H]1O"
1900

(I) NC[C@H]1O[C@@H](O[C@@H](CNCCc2ccccc2)[C@@H]2C[C@@H](O)[C@H](n3ccc(=O)[nH]c3=O)O2)[C@H](O)[C@@H]1O
(II) NC[C@H]1O[C@@H](O[C@@H](CNCc2ccc(SC(F)(F)F)cc2)[C@@H]2C[C@@H](O)[C@H](n3ccc(=O)[nH]c3=O)O2)[C@H](O)[C@@H]1O
I'd appreciate it if you could identify which of I and II has the greater IC50. Please respond with the label that marks your chosen entry.
I
(I: 1600 nM, II: 310 nM)

* * *

assay: Inhibitory activity against Translocase I
REPORTED ENDPOINT: IC50 (nM)

Give the reported value of IC50 for this record: "NC[C@H]1O[C@@H](O[C@@H](CNCc2ccc(C(=O)O)cc2)[C@@H]2C[C@@H](O)[C@H](n3ccc(=O)[nH]c3=O)O2)[C@H](O)[C@@H]1O"
6500

(1) Cc1ccc(CCNC[C@H](O[C@@H]2O[C@H](CN)[C@@H](O)[C@H]2O)[C@@H]2C[C@@H](O)[C@H](n3ccc(=O)[nH]c3=O)O2)cc1
(2) NC[C@H]1O[C@@H](O[C@@H](CNCCc2ccc(Oc3ccccc3)cc2)[C@@H]2C[C@@H](O)[C@H](n3ccc(=O)[nH]c3=O)O2)[C@H](O)[C@@H]1O
I'd appreciate it if you could identify which of 1 and 2 has the greater IC50. Please respond with the label that marks your chosen entry.
1

(1) NC[C@H]1O[C@@H](O[C@@H](CNCCCN2CCCC2=O)[C@@H]2C[C@@H](O)[C@H](n3ccc(=O)[nH]c3=O)O2)[C@H](O)[C@@H]1O
(2) NC[C@H]1O[C@@H](O[C@@H](CNC(=O)Nc2ccc(Oc3ccccc3)cc2)[C@@H]2C[C@@H](O)[C@H](n3ccc(=O)[nH]c3=O)O2)[C@H](O)[C@@H]1O
Please let me know which one, 1 or 2 , has a lower measured IC50 value. Please respond with the label that marks your chosen entry.
2
(2: 140 nM, 1: 7000 nM)
